- Tested on: PC-12
- Measurement Protocol: Cytotoxicity against rat PC12 cells assessed as reduction in cell viability at 100 uM after 48 hrs by MTT assay relative to control
- Format: cell-based
- Measurement Context: pc-12, 48 h
Measured Endpoint: Activity (%)
Report only the number, with the unit % understood.

Smiles Record	Measured Endpoint	Result Value
Cc1ccc(NC(=O)CSc2nnc(-c3ccc(N)cc3)n2C)cc1	Activity	60

Please examine the following record next.
[in] # query: Activity of entry "Cc1cccc(CNC(=O)[C@@H](C)C2CCN(C(=O)c3ccc4oc(-c5ccccc5)nc4c3)CC2)c1"
[out] 87

----------
- Target Or Test System: Amyloid-beta precursor protein (Homo sapiens)
- Measurement Protocol: Inhibition of recombinant human amyloid beta (1 to 42) aggregation at 100 uM measured every 10 mins for 48 hrs by thioflavin T fluorescence assay
The source made the active and inactive calls. The calls are words filed in the database; no cut-off is given here.
Measured Endpoint: inhibition

Worked cases, inhibition given:
Smiles Record	Measured Endpoint	Result Value
c1ccc(COc2cccc(C3N(Cc4ccccc4)CCN3Cc3ccccc3)c2)cc1	inhibition	inactive
Cn1c(SCC(=O)Nc2ccccc2)nnc1-c1ccc(N)cc1	inhibition	Active
Cc1cccc(CNC(=O)[C@@H](C)C2CCN(C(=O)c3ccc4oc(-c5ccccc5)nc4c3)CC2)c1	inhibition	inactive
Cc1ccc(NC(=O)CSc2nnc(-c3ccc(N)cc3)n2C)cc1	inhibition	Active

[in] // lookup inhibition for "COc1cc(C2N(Cc3ccccc3)CCN2Cc2ccccc2)ccc1OCc1ccccc1"
[out] Active
